These entries and their values trace back to ChEMBL document CHEMBL5356958.

Tested on: MGC-803
Protocol text: Antiproliferative activity against human MGC-803 cells incubated for 48 hrs by SRB assay
Assay type: functional, cell-based
Test conditions: MGC-803, 48 h
pIC50: −log10 of the molar value.
Listed molecules paired with reported pIC50

Worked examples follow.
CCc1nc(-c2ccc(OC)cc2)n(-c2cccc(C(=O)NCCCCn3cnnn3)c2)n1
< 5.00
CCc1nc(-c2ccc(OC)cc2)n(-c2cccc(C(=O)NCCCn3nccn3)c2)n1
< 5.00

Value wanted: pIC50 (MGC-803) of entry CCc1nc(-c2ccc(OC)cc2)n(-c2cccc(C(=O)NCCCCn3cc(Br)nn3)c2)n1 < 5.00

Also CCc1nc(-c2ccc(OC)cc2)n(-c2cccc(C(=O)NCCCCn3ccnc3)c2)n1 , if possible. < 5.00

Also CCc1nc(-c2ccc(OC)cc2)n(-c2cccc(C(=O)NCCCCN3CCCCC3)c2)n1 , if possible. < 5.00
